Value source: the supplement of paper PMC10307832

Tested on: NCI-H2405
Assay: relative viability (nuclei count vs DMSO), 5 days (fraction); higher = more cells survive
Conditions: first compound 0.05 µM
readout-kind: relative viability
Reply with just the number.

INPUT: What does the record list as relative viability for CC1(C)CCC(c2ccc(Cl)cc2)=C(CN2CCN(c3ccc(C(=O)NS(=O)(=O)c4ccc(N[C@H](CCN5CCOCC5)CSc5ccccc5)c(S(=O)(=O)C(F)(F)F)c4)cc3)CC2)C1 [Navitoclax] + CS(=O)(=O)N1CCN(Cc2cc3nc(-c4cccc5[nH]ncc45)nc(N4CCOCC4)c3s2)CC1 [Pictilisib] (partner 1 µM) ?
OUTPUT: 0.434

* * *

System: ABC-1
Assay: relative viability (nuclei count vs DMSO), 5 days (fraction); higher = more cells survive
Details: first compound 2.53 µM
readout-kind: relative viability
Reply with just the number.

INPUT: What does the record list as relative viability for C=C1C(=O)O[C@@H](CCCCCCCC)[C@@H]1C(=O)O [C-75] + Cc1nc(NC(=O)N2CCC[C@H]2C(N)=O)sc1-c1ccnc(C(C)(C)C(F)(F)F)c1 [Alpelisib] (partner 2 µM) ?
OUTPUT: 0.991

INPUT: What does the record list as relative viability for Oc1nc(-c2ccc(C(F)(F)F)cc2)nc2c1CSCC2 [XAV939] + Cc1nc(Nc2ncc(C(=O)Nc3c(C)cccc3Cl)s2)cc(N2CCN(CCO)CC2)n1 [Dasatinib] (partner 0.075 µM) ?
OUTPUT: 0.415

INPUT: What does the record list as relative viability for C=C1C(=O)O[C@@H](CCCCCCCC)[C@@H]1C(=O)O [C-75] + CC(=O)c1c(C)c2cnc(Nc3ccc(N4CCNCC4)cn3)nc2n(C2CCCC2)c1=O [Palbociclib] (partner 0.5 µM) ?
OUTPUT: 0.494

INPUT: What does the record list as relative viability for Oc1nc(-c2ccc(C(F)(F)F)cc2)nc2c1CSCC2 [XAV939] + Cc1nc(NC(=O)N2CCC[C@H]2C(N)=O)sc1-c1ccnc(C(C)(C)C(F)(F)F)c1 [Alpelisib] (partner 2 µM) ?
OUTPUT: 0.428

INPUT: What does the record list as relative viability for Oc1nc(-c2ccc(C(F)(F)F)cc2)nc2c1CSCC2 [XAV939] + CS(=O)(=O)CCNCc1ccc(-c2ccc3ncnc(Nc4ccc(OCc5cccc(F)c5)c(Cl)c4)c3c2)o1 [Lapatinib] (partner 2 µM) ?
OUTPUT: 0.657

INPUT: What does the record list as relative viability for Oc1nc(-c2ccc(C(F)(F)F)cc2)nc2c1CSCC2 [XAV939] + C[C@@H](Oc1cc(-c2cnn(C3CCNCC3)c2)cnc1N)c1c(Cl)ccc(F)c1Cl [Crizotinib] (partner 1 µM) ?
OUTPUT: 0.603

INPUT: What does the record list as relative viability for C=C1C(=O)O[C@@H](CCCCCCCC)[C@@H]1C(=O)O [C-75] + CS(=O)(=O)CCNCc1ccc(-c2ccc3ncnc(Nc4ccc(OCc5cccc(F)c5)c(Cl)c4)c3c2)o1 [Lapatinib] (partner 2 µM) ?
OUTPUT: 0.981

INPUT: What does the record list as relative viability for Oc1nc(-c2ccc(C(F)(F)F)cc2)nc2c1CSCC2 [XAV939] + CC(=O)c1c(C)c2cnc(Nc3ccc(N4CCNCC4)cn3)nc2n(C2CCCC2)c1=O [Palbociclib] (partner 0.5 µM) ?
OUTPUT: 0.343

INPUT: What does the record list as relative viability for Oc1nc(-c2ccc(C(F)(F)F)cc2)nc2c1CSCC2 [XAV939] + O=C(c1cc(Cc2n[nH]c(=O)c3ccccc23)ccc1F)N1CCN(C(=O)C2CC2)CC1 [Olaparib] (partner 8 µM) ?
OUTPUT: 0.61

INPUT: What does the record list as relative viability for C=C1C(=O)O[C@@H](CCCCCCCC)[C@@H]1C(=O)O [C-75] + C[C@@H](Oc1cc(-c2cnn(C3CCNCC3)c2)cnc1N)c1c(Cl)ccc(F)c1Cl [Crizotinib] (partner 1 µM) ?
OUTPUT: 0.909

INPUT: What does the record list as relative viability for Oc1nc(-c2ccc(C(F)(F)F)cc2)nc2c1CSCC2 [XAV939] + CS(=O)(=O)N1CCN(Cc2cc3nc(-c4cccc5[nH]ncc45)nc(N4CCOCC4)c3s2)CC1 [Pictilisib] (partner 1 µM) ?
OUTPUT: 0.348

INPUT: What does the record list as relative viability for C=C1C(=O)O[C@@H](CCCCCCCC)[C@@H]1C(=O)O [C-75] + NC(=O)Nc1cc(-c2cccc(F)c2)sc1C(=O)N[C@H]1CCCNC1 [AZD7762] (partner 0.2 µM) ?
OUTPUT: 0.672

* * *

System: HCC-366
Experiment: relative viability (nuclei count vs DMSO), 5 days (fraction); higher = more cells survive
Details: first compound 0.01581 µM
readout-kind: relative viability

INPUT: What does the record list as relative viability for CC1(C)CCC(c2ccc(Cl)cc2)=C(CN2CCN(c3ccc(C(=O)NS(=O)(=O)c4ccc(N[C@H](CCN5CCOCC5)CSc5ccccc5)c(S(=O)(=O)C(F)(F)F)c4)cc3)CC2)C1 [Navitoclax] + Nc1ncn([C@H]2C[C@H](O)[C@@H](CO)O2)c(=O)n1 [Decitabine] (partner 2 µM) ?
OUTPUT: 0.4

* * *

Tested on: NCI-H1755
Assay: relative viability (nuclei count vs DMSO), 5 days (fraction); higher = more cells survive
Conditions: first compound 0.01 µM
readout-kind: relative viability
Reply with just the number.

INPUT: Field: relative viability (NCI-H1755). Entry: NC(=O)Nc1cc(-c2cccc(F)c2)sc1C(=O)N[C@H]1CCCNC1 [AZD7762] + CCNC(=O)c1noc(-c2cc(C(C)C)c(O)cc2O)c1-c1ccc(CN2CCOCC2)cc1 [Luminespib] (partner 0.01 µM)
OUTPUT: 0.498

INPUT: Field: relative viability (NCI-H1755). Entry: NC(=O)Nc1cc(-c2cccc(F)c2)sc1C(=O)N[C@H]1CCCNC1 [AZD7762] + CC(=O)c1c(C)c2cnc(Nc3ccc(N4CCNCC4)cn3)nc2n(C2CCCC2)c1=O [Palbociclib] (partner 0.5 µM)
OUTPUT: 0.483

INPUT: Field: relative viability (NCI-H1755). Entry: NC(=O)Nc1cc(-c2cccc(F)c2)sc1C(=O)N[C@H]1CCCNC1 [AZD7762] + COc1cccc2cc(-c3nc([C@H]4CC[C@H](C(=O)O)CC4)n4ncnc(N)c34)[nH]c12 [OSI-027] (partner 0.5 µM)
OUTPUT: 0.826

INPUT: Field: relative viability (NCI-H1755). Entry: NC(=O)Nc1cc(-c2cccc(F)c2)sc1C(=O)N[C@H]1CCCNC1 [AZD7762] + CC(=O)Nc1cccc(-n2c(=O)n(C3CC3)c(=O)c3c(Nc4ccc(I)cc4F)n(C)c(=O)c(C)c32)c1 [Trametinib] (partner 0.02 µM)
OUTPUT: 0.788

INPUT: Field: relative viability (NCI-H1755). Entry: NC(=O)Nc1cc(-c2cccc(F)c2)sc1C(=O)N[C@H]1CCCNC1 [AZD7762] + CS(=O)(=O)N1CCN(Cc2cc3nc(-c4cccc5[nH]ncc45)nc(N4CCOCC4)c3s2)CC1 [Pictilisib] (partner 1 µM)
OUTPUT: 0.471

INPUT: Field: relative viability (NCI-H1755). Entry: NC(=O)Nc1cc(-c2cccc(F)c2)sc1C(=O)N[C@H]1CCCNC1 [AZD7762] + Cc1cc(Nc2cc(N3CCN(C)CC3)nc(Sc3ccc(NC(=O)C4CC4)cc3)n2)n[nH]1 [Tozasertib] (partner 0.1 µM)
OUTPUT: 0.767

INPUT: Field: relative viability (NCI-H1755). Entry: NC(=O)Nc1cc(-c2cccc(F)c2)sc1C(=O)N[C@H]1CCCNC1 [AZD7762] + N=C(N)NC(=N)NCCc1ccccc1 [Phenformin] (partner 250 µM)
OUTPUT: 0.636

INPUT: Field: relative viability (NCI-H1755). Entry: NC(=O)Nc1cc(-c2cccc(F)c2)sc1C(=O)N[C@H]1CCCNC1 [AZD7762] + CC(C)C[C@H](NC(=O)[C@H](Cc1ccccc1)NC(=O)c1cnccn1)B(O)O [Bortezomib] (partner 0.002 µM)
OUTPUT: 0.919

* * *

Tested on: RERF-LC-KJ
Test: relative viability (nuclei count vs DMSO), 5 days (fraction); higher = more cells survive
Details: first compound 0.04 µM
Answer each item with its documented relative viability.
Reply with just the number.

INPUT: What does the record list as relative viability for O=C(O)c1ccc(-c2c[nH]c3ncc(-c4ccccc4)cc23)cc1C1CCCC1 + CC(=O)Nc1cccc(-n2c(=O)n(C3CC3)c(=O)c3c(Nc4ccc(I)cc4F)n(C)c(=O)c(C)c32)c1 [Trametinib] (partner 0.02 µM) ?
OUTPUT: 0.916

INPUT: What does the record list as relative viability for O=C(O)c1ccc(-c2c[nH]c3ncc(-c4ccccc4)cc23)cc1C1CCCC1 + Cc1nc(Nc2ncc(C(=O)Nc3c(C)cccc3Cl)s2)cc(N2CCN(CCO)CC2)n1 [Dasatinib] (partner 0.075 µM) ?
OUTPUT: 0.758

INPUT: What does the record list as relative viability for O=C(O)c1ccc(-c2c[nH]c3ncc(-c4ccccc4)cc23)cc1C1CCCC1 + CS(=O)(=O)CCNCc1ccc(-c2ccc3ncnc(Nc4ccc(OCc5cccc(F)c5)c(Cl)c4)c3c2)o1 [Lapatinib] (partner 2 µM) ?
OUTPUT: 0.8

INPUT: What does the record list as relative viability for O=C(O)c1ccc(-c2c[nH]c3ncc(-c4ccccc4)cc23)cc1C1CCCC1 + C[C@]1(O)C[C@@H](c2nc(-c3ccc4ccc(-c5ccccc5)nc4c3)c3c(N)nccn32)C1 [Linsitinib] (partner 1 µM) ?
OUTPUT: 0.86

INPUT: What does the record list as relative viability for O=C(O)c1ccc(-c2c[nH]c3ncc(-c4ccccc4)cc23)cc1C1CCCC1 + Cc1nc(NC(=O)N2CCC[C@H]2C(N)=O)sc1-c1ccnc(C(C)(C)C(F)(F)F)c1 [Alpelisib] (partner 2 µM) ?
OUTPUT: 0.838

INPUT: What does the record list as relative viability for O=C(O)c1ccc(-c2c[nH]c3ncc(-c4ccccc4)cc23)cc1C1CCCC1 + Nc1nc2[nH]cc(CCc3ccc(C(=O)N[C@@H](CCC(=O)O)C(=O)O)cc3)c2c(=O)[nH]1 [Pemetrexed] (partner 0.2 µM) ?
OUTPUT: 0.466

INPUT: What does the record list as relative viability for O=C(O)c1ccc(-c2c[nH]c3ncc(-c4ccccc4)cc23)cc1C1CCCC1 + O=C(c1cc(Cc2n[nH]c(=O)c3ccccc23)ccc1F)N1CCN(C(=O)C2CC2)CC1 [Olaparib] (partner 8 µM) ?
OUTPUT: 0.9
